// data source = paper PMC6591251

Assay Explanation: Pharmacokinetic profile in mice
Assay type: in vivo
Condition Details: ICR, plasma, 2 mg/kg; mouse, IV (Bolus)
Observed Property: MRT (min)
Respond numerically; units are min and should not be typed.

Req: May I ask what MRT has been recorded for CC(=O)Nc1nc2ccc(-c3cnc(C)c(NC(=O)OC4CCCCC4)c3)cc2s1 [PK68] ?
Resp: 48
